tested on: PAS domain-containing serine/threonine-protein kinase (Homo sapiens)
condition notes: at 0.1 µM
Description: GSK_PKIS: PASK mean inhibition at 0.1 uM [Nanosyn]
metric name: inhibition (%)

smiles string | unit symbol | observed measurement
CC(C)c1ccc(-c2cc(-c3c[nH]nc3-c3ccccn3)ccn2)cc1 | % | -0.36
Cc1ccc(-c2cc3c(NC(=O)C4CC4)ncnc3o2)cc1 | % | 0.53
Fc1cccc(COc2ccc(Nc3ncncc3C#Cc3ccccc3)cc2Cl)c1 | % | 0.76
CNC(=O)c1cncc(/C=C/c2ccccc2C)c1 | % | 0.44
O=C(O[C@H]1CN[C@H](C#Cc2cc3ncnc(Nc4ccc5c(cnn5Cc5ccccc5)c4)c3s2)C1)N1CCOCC1 | % | 1.66
FC(F)(F)CNc1nccc(-c2cnn3ncccc23)n1 | % | 1.06

----------
tested on: Serine/threonine-protein kinase Sgk2 (Homo sapiens)
condition notes: at 1 µM
Description: GSK_PKIS: SGK2 mean inhibition at 1 uM [Nanosyn]
Listed here: items and their measured inhibition.

smiles string | tested on | inhibition, %
COc1cccc(Nc2nccc(-c3cnn4ncccc34)n2)c1 | Serine/threonine-protein kinase Sgk2 (Homo sapiens) | 6.98
CCCNc1cccc(-n2ncc3c(N/N=C/c4ccncc4)ncnc32)c1 | Serine/threonine-protein kinase Sgk2 (Homo sapiens) | 10.9
Cc1c2ccc(N(C)c3ccnc(Nc4cccc(S(N)(=O)=O)c4)n3)cc2nn1C | Serine/threonine-protein kinase Sgk2 (Homo sapiens) | 3.7
N#Cc1cccc(Nc2ncc(-c3ccccc3)o2)c1 | Serine/threonine-protein kinase Sgk2 (Homo sapiens) | -1.67
c1ccc(-c2n[nH]cc2-c2ccnc(-c3ccc(OCCn4ccnc4)cc3)c2)nc1 | Serine/threonine-protein kinase Sgk2 (Homo sapiens) | 0.22
Cc1cc(O)cc(C)c1/C=C/c1cncc(C(N)=O)c1 | Serine/threonine-protein kinase Sgk2 (Homo sapiens) | 3.1
OCCCNc1nccc(-c2c(-c3ccc(F)cc3)nn3cc(C(F)(F)F)ccc23)n1 | Serine/threonine-protein kinase Sgk2 (Homo sapiens) | 5.76
FC(F)(F)CNc1nccc(-c2cnn3ncccc23)n1 | Serine/threonine-protein kinase Sgk2 (Homo sapiens) | 0.87
NS(=O)(=O)c1ccc(N/N=C2\C(=O)Nc3ccc(C(=O)NCc4ccncc4)cc32)cc1 | Serine/threonine-protein kinase Sgk2 (Homo sapiens) | 8.08
NC(=O)c1ccc2c(-c3ccnc(NCCCO)n3)c(-c3ccc(F)cc3)nn2c1 | Serine/threonine-protein kinase Sgk2 (Homo sapiens) | 1.91
COC(=O)Nc1nc2ccc(Oc3ccc(NC(=O)Nc4cc(C(F)(F)F)ccc4F)cc3)cc2s1 | Serine/threonine-protein kinase Sgk2 (Homo sapiens) | 0.53
CCn1c(-c2nonc2N)nc2cncc(C(=O)NCCNC)c21 | Serine/threonine-protein kinase Sgk2 (Homo sapiens) | 17.7
COC(=O)Nc1nc2cc(Oc3ccc(NC(=O)Nc4ccccc4)cc3)ccc2[nH]1 | Serine/threonine-protein kinase Sgk2 (Homo sapiens) | 3.69

----------
tested on: Tyrosine-protein kinase Srms (Homo sapiens) (UniProt Q9H3Y6);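 note: reported value is a mean of the inhibition readings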
Sequence (Q9H3Y6 whole entry): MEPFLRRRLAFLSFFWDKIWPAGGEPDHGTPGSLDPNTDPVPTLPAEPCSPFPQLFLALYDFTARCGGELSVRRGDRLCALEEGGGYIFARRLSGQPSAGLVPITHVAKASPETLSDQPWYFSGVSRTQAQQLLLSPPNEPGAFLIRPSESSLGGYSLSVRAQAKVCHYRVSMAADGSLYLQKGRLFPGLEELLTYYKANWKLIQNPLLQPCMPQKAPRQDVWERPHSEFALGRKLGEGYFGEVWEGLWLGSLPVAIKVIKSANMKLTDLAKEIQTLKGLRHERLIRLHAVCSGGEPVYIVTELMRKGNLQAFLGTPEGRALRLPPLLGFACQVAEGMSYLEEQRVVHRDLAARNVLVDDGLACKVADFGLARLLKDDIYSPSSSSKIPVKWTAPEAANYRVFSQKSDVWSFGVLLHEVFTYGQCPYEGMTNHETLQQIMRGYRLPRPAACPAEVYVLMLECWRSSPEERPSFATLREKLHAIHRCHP
condition notes: at 0.1 µM
# inhibition listing for each entry below

molecule | unit symbol | inhibition
c1cnn2ncc(-c3ccnc(NCCCN4CCOCC4)n3)c2c1 | % | 0.14
COc1cc(N2CCN(C(C)C)CC2)ccc1Nc1nc(Nc2cccc(F)c2C(=O)O)c2cc[nH]c2n1 | % | -1.76
CC1(C)CC(n2cnc(-c3ccc(F)cc3)c2-c2ccnc(N)n2)CC(C)(C)N1 | % | 0.52
CS(=O)(=O)CCNCc1ccc(-c2ccc3ncnc(Nc4ccc(OCc5ccccc5)cc4)c3c2)o1 | % | -0.68
N#Cc1ccc2c(-c3ccnc(NC4CC4)n3)c(-c3ccc(F)cc3)nn2c1 | % | 0.49
CC1=C(C(=O)Nc2ccc3[nH]nc(C)c3c2)C(c2ccc(C(F)(F)F)cc2)CC(=O)N1 (stereo not given) | % | 0.76
Cc1cc(O)cc(C)c1/C=C/c1cncc(C(=O)OC(C)(C)C)c1 | % | 10.2
CN1CCC(n2cnc(-c3ccc(F)cc3)c2-c2ccnc(NCCO)n2)CC1 | % | -0.64
O=C(Nc1n[nH]c2nnc(-c3cccnc3)cc12)C1CC1 | % | 2.39
CCOc1ccc2c(-c3ccnc(Nc4cc(OC)cc(C(F)(F)F)c4)n3)cnn2n1 | % | 2.39

----------
tested on: Serine/threonine-protein kinase MRCK beta (Homo sapiens);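 note: averaged inhibition values against MRCK beta, part of the GSK PKIS profiling dataset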
condition notes: at 1 µM
metric name: inhibition (%)

smiles string | metric name | observed measurement
COc1ccccc1-c1cc(/C=C2\C(=O)Nc3ncc(Br)cc32)cc(Br)c1O | inhibition | -0.72
FC(F)(F)CNc1nccc(-c2cnn3ncccc23)n1 | inhibition | -0.68
CCn1c(-c2nonc2N)nc2cncc(C(=O)NCCNC)c21 | inhibition | 66.7
CN1CCC(n2cnc(-c3ccc(F)cc3)c2-c2ccnc(NCCO)n2)CC1 | inhibition | 0.28
NS(=O)(=O)c1ccc(N/N=C2\C(=O)Nc3ccc(C(=O)NCc4ccncc4)cc32)cc1 | inhibition | 2.29

----------
tested on: RAF proto-oncogene serine/threonine-protein kinase (Homo sapiens) (UniProt P04049);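 note: values are mean CRAF kinase inhibition from profiling of the GSK Published Kinase Inhibitor Set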
Sequence (P04049 whole entry): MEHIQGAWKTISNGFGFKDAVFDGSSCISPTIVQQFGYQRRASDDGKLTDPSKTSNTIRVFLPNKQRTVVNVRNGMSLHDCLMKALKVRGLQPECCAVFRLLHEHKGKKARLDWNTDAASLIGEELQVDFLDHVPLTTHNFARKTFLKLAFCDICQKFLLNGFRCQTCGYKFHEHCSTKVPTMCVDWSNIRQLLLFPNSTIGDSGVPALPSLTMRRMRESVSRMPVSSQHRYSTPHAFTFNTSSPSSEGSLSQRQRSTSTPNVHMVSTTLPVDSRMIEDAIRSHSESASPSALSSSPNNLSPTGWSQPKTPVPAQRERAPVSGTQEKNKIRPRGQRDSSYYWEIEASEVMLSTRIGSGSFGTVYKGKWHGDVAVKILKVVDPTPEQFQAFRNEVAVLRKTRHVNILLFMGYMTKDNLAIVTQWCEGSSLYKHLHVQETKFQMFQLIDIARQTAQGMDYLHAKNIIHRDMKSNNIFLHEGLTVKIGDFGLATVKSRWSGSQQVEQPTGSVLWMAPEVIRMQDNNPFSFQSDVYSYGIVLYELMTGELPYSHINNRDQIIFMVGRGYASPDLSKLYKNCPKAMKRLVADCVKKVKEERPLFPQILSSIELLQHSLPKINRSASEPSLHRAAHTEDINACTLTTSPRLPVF
condition notes: at 0.1 µM
inhibition values by entry

smiles string | tested on | inhibition (%)
Cc1cc(O)cc(C)c1/C=C/c1cncc(C(=O)OC(C)(C)C)c1 | RAF proto-oncogene serine/threonine-protein kinase (Homo sapiens) (UniProt P04049) | 3.1
CN(c1ccc(NC(=O)NCCN2CCOCC2)cc1)c1ccnc(Nc2ccc(CS(C)(=O)=O)cc2)n1 | RAF proto-oncogene serine/threonine-protein kinase (Homo sapiens) (UniProt P04049) | 6.1
Cc1cc(O)cc(C)c1/C=C/c1cncc(C(N)=O)c1 | RAF proto-oncogene serine/threonine-protein kinase (Homo sapiens) (UniProt P04049) | -1.23
CN(C)CCNC(=O)Nc1ccc(N(C)c2ccnc(Nc3ccc(CS(C)(=O)=O)cc3)n2)cc1 | RAF proto-oncogene serine/threonine-protein kinase (Homo sapiens) (UniProt P04049) | -0.51
COC(=O)Nc1nc2cc(Oc3ccc(NC(=O)Nc4ccccc4)cc3)ccc2[nH]1 | RAF proto-oncogene serine/threonine-protein kinase (Homo sapiens) (UniProt P04049) | -5.27
O=C1Nc2ccccc2/C1=C1\CCc2cc(O)ccc21 | RAF proto-oncogene serine/threonine-protein kinase (Homo sapiens) (UniProt P04049) | 0.39
NS(=O)(=O)c1ccc(N/N=C2\C(=O)Nc3cccc(CCc4ccncc4)c32)cc1 | RAF proto-oncogene serine/threonine-protein kinase (Homo sapiens) (UniProt P04049) | -0.07
COc1cccc(-n2ncc3c(N/N=C/c4ccc(C(=O)NCCN(C)C)cc4)ncnc32)c1 | RAF proto-oncogene serine/threonine-protein kinase (Homo sapiens) (UniProt P04049) | 2.11
COc1cc2c(cc1Nc1nc(Nc3cccc(F)c3C(N)=O)c3cc[nH]c3n1)N(C(=O)CN1CCN(C(C)C)CC1)CC2 | RAF proto-oncogene serine/threonine-protein kinase (Homo sapiens) (UniProt P04049) | 0.97
CS(=O)(=O)Nc1ccc(-c2ccc3c(NC(=O)C4CC4)n[nH]c3c2)cc1 | RAF proto-oncogene serine/threonine-protein kinase (Homo sapiens) (UniProt P04049) | 4.35
c1cnn2ncc(-c3ccnc(NCCCN4CCOCC4)n3)c2c1 | RAF proto-oncogene serine/threonine-protein kinase (Homo sapiens) (UniProt P04049) | 2.81
c1ccc(-c2n[nH]cc2-c2ccnc(-c3ccc(OCCn4ccnc4)cc3)c2)nc1 | RAF proto-oncogene serine/threonine-protein kinase (Homo sapiens) (UniProt P04049) | -0.53
CS(=O)(=O)CCNCc1ccc(-c2ccc3ncnc(Nc4ccc(OCc5ccccc5)cc4)c3c2)o1 | RAF proto-oncogene serine/threonine-protein kinase (Homo sapiens) (UniProt P04049) | -0.67

----------
tested on: Ephrin type-B receptor 2 (Homo sapiens);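 note: reported as mean inhibition of EPHB2, from the GSK PKIS dataset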
condition notes: at 0.1 µM

smiles string | unit symbol | inhibition
Fc1ccc(Nc2nccc(-c3c(-c4ccc(C(F)(F)F)cc4)nn4ncccc34)n2)cc1F | % | 8.38
Cc1cc(O)cc(C)c1/C=C/c1cncc(C(=O)OC(C)(C)C)c1 | % | 23
CCn1c(-c2nonc2N)nc2cncc(C(=O)NCCNC)c21 | % | 12.1
CNC(=O)c1cncc(/C=C/c2ccccc2C)c1 | % | 7.84
COC(=O)Nc1nc2cc(Oc3ccc(NC(=O)Nc4ccccc4)cc3)ccc2[nH]1 | % | 5.01

----------
Property: inhibition; scope: individual compounds
Test system: Tyrosine-protein kinase ABL1 (Homo sapiens), P00519 [Q252H]
condition notes: at 1 µM

compound | inhibition [%]
NS(=O)(=O)c1ccc(N/N=C2\C(=O)Nc3ccc(C(=O)NCc4ccncc4)cc32)cc1 | 11.6
CS(=O)(=O)CCNCc1ccc(-c2ccc3ncnc(Nc4ccc(OCc5cccc(C(F)(F)F)c5)cc4)c3c2)o1 | 4.5
COc1ccc(-c2nn3ncccc3c2-c2ccnc(Nc3ccc(F)c(F)c3)n2)cc1 | 47.4
COc1ccc(Nc2ncc(-c3ccccc3)o2)cc1OC | 44.7
CCn1c(-c2nonc2N)nc2cncc(C(=O)NCCNC)c21 | 5.61
CC1(C)CC(n2cnc(-c3ccc(F)cc3)c2-c2ccnc(N)n2)CC(C)(C)N1 | 0.31
CCCNc1cccc(-n2ncc3c(N/N=C/c4ccncc4)ncnc32)c1 | 83.8
CC1=C(C(=O)Nc2ccc3[nH]nc(C)c3c2)C(c2ccc(C(F)(F)F)cc2)CC(=O)N1 (stereo not drawn) | 3.3
c1ccc(-c2n[nH]cc2-c2ccnc(-c3ccc(OCCn4ccnc4)cc3)c2)nc1 | 73.4
CS(=O)(=O)Nc1ccc(-c2cc(-c3ccccc3)cc(C(N)=O)c2N)cc1 | 3.07
Cc1nnc(-c2cccc(-c3ccc(C(=O)NCC4CC4)cc3)c2)o1 | 5.92
NS(=O)(=O)c1ccc(N/N=C2\C(=O)Nc3cccc(CCc4ccncc4)c32)cc1 | 7.74
CNC(=O)c1ncccc1Nc1nc(Nc2cc3c(cc2OC)CCCN3C(=O)CN(C)C)nc2[nH]ccc12 | 3.95
COc1cc(N2CCN(C(C)C)CC2)ccc1Nc1nc(Nc2cccc(F)c2C(=O)O)c2cc[nH]c2n1 | 5.16
Cc1cc(O)cc(C)c1/C=C/c1cncc(C(N)=O)c1 | 67.5
CS(=O)(=O)CCNCc1ccc(-c2ccc3ncnc(Nc4ccc(OCc5ccccc5)cc4)c3c2)o1 | 5.12
CNC(=O)c1sc(-n2cnc3cc(OC)c(OC)cc32)cc1OCc1ccccc1C(F)(F)F | 7.88
Cc1cc(O)cc(C)c1/C=C/c1cncc(C(=O)OC(C)(C)C)c1 | 52.5
NS(=O)(=O)c1cccc(N/C=C2\C(=O)Nc3ccccc32)c1 | 8.71
FC(F)(F)CNc1nccc(-c2cnn3ncccc23)n1 | 1.59
Cn1c(-c2nonc2N)nc2cnccc21 | 1.71
COc1cc(Nc2ncc(-c3ccccc3)o2)cc(OC)c1 | 33.6
Cc1c2ccc(N(C)c3ccnc(Nc4cccc(S(N)(=O)=O)c4)n3)cc2nn1C | 83.6
COc1cc(N2CCN(C(C)C)CC2)ccc1Nc1nc(Nc2cccc3ncccc23)c2cc[nH]c2n1 | 3.51
O=C(O[C@H]1CN[C@H](C#Cc2cc3ncnc(Nc4ccc(OCc5cccc(F)c5)c(Cl)c4)c3s2)C1)N1CCOCC1 | 2.92
COC(=O)Nc1nc2ccc(Oc3ccc(NC(=O)Nc4cc(C(F)(F)F)ccc4F)cc3)cc2s1 | 91.4
CS(=O)(=O)Nc1ccc(-c2ccc3c(NC(=O)C4CC4)n[nH]c3c2)cc1 | 9.35
COc1c(C(N)=O)cc(-c2ccc(Cl)cc2)cc1-c1ccc(S(N)(=O)=O)cc1 | 5.89

Where do the numbers come from? From ChEMBL document CHEMBL1961873.
